Origin of the recorded values: paper PMC10221418

# target: human AKR7A2 (Homo sapiens)
# Construct: made in house; host or cells: E. coli BL21 (DE3) pLysS, pET-28a vector
# Sequence (O43488 39-359): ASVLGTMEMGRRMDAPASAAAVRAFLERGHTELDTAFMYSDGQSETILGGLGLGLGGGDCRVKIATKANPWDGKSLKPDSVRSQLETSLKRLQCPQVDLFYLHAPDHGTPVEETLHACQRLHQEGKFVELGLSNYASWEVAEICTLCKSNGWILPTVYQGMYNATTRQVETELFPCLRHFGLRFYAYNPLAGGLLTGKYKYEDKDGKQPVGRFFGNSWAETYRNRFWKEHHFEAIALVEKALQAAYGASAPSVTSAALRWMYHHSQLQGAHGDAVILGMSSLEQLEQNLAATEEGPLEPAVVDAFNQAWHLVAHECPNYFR
# assay explanation: Biacore assays: binding of azole drugs and 2-CBA to immobilized AKR7A2
# experimental conditions: 25 °C, 1:1 binding model
kd values by entry
Quick note: give the figure in s⁻¹, leave out the unit.

OC(Cn1cncn1)(Cn1cncn1)c1ccc(F)cc1F    0.0218
O=Cc1ccccc1C(=O)O    0.0229

(Q) Dear colleague, I am looking for the recorded kd of the following compound: CCC(C)n1ncn(-c2ccc(N3CCN(c4ccc(OCC5COC(Cn6cncn6)(c6ccc(Cl)cc6Cl)O5)cc4)CC3)cc2)c1=O (centres unmarked)
(A) 0.0263

(Q) // same read-out, input: C[C@@H](c1ncncc1F)[C@](O)(Cn1cncn1)c1ccc(F)cc1F
(A) 0.0168

(Q) // same read-out, input: CC[C@@H]([C@H](C)O)n1ncn(-c2ccc(N3CCN(c4ccc(OC[C@@H]5CO[C@@](Cn6cncn6)(c6ccc(F)cc6F)C5)cc4)CC3)cc2)c1=O
(A) 0.0298

(Q) // same read-out, input: Clc1ccc(COC(Cn2ccnc2)c2ccc(Cl)cc2Cl)c(Cl)c1 (centres unmarked)
(A) 0.0536

* * *

// human AKR7A2 (Homo sapiens, UniProt O43488) Kd records
Quick note: give the figure in µM, leave out the unit.

CC(=O)N1CCN(c2ccc(OCC3COC(Cn4ccnc4)(c4ccc(Cl)cc4Cl)O3)cc2)CC1 (stereo not drawn)    1800
CC[C@@H]([C@H](C)O)n1ncn(-c2ccc(N3CCN(c4ccc(OC[C@@H]5CO[C@@](Cn6cncn6)(c6ccc(F)cc6F)C5)cc4)CC3)cc2)c1=O    1.35

Moving on to the next compound.
(Q) Dear colleague, I am looking for the recorded Kd of the following compound: Clc1ccc(COC(Cn2ccnc2)c2ccc(Cl)cc2Cl)cc1 (stereo not drawn)
(A) 565

* * *

kcat values by entry
# target: human AKR7A2 (Homo sapiens)
# Construct: made in house; host or cells: E. coli BL21 (DE3) pLysS, pET-28a vector
# assay explanation: Steady-state kinetics of AKR7A2 catalyzing 2-CBA in the absence or presence of azole drugs
# Type: biochemical
# experimental conditions: substrate 2-CBA; drug concentration 5 μM
Quick note: give the figure in min⁻¹, leave out the unit.

Record excerpt, results attached:
CC[C@@H]([C@H](C)O)n1ncn(-c2ccc(N3CCN(c4ccc(OC[C@@H]5CO[C@@](Cn6cncn6)(c6ccc(F)cc6F)C5)cc4)CC3)cc2)c1=O    74.33
CCC(C)n1ncn(-c2ccc(N3CCN(c4ccc(OCC5COC(Cn6cncn6)(c6ccc(Cl)cc6Cl)O5)cc4)CC3)cc2)c1=O (stereo not shown)    80.53
Clc1ccc(COC(Cn2ccnc2)c2ccc(Cl)cc2Cl)cc1 (stereo not shown)    71.64

Moving on to the next compound.
(Q) Dear colleague, I am looking for the recorded kcat of the following compound: Clc1ccc(COC(Cn2ccnc2)c2ccc(Cl)cc2Cl)c(Cl)c1 (stereo not shown)
(A) 72.31
